Test: in vivo
Conditions: rat, in vivo, iv, 1 mg/kg, MRT0-t, Mean
Method: Routes: single back subcutaneous injection and single tail vein injection; Orbital blood was collected at different time points before and after administration. […] High concentration samples were diluted with blank plasma. […] Pharmacokinetic parameters were calculated using the non-compartmental model of DAS 2.0 software. Both Cmax and Tmax are measured values; AUC, T½, CL and Vz are calculated by DAS 2.0.
Peptide text beside a SMILES is read from it. * marks the point of attachment. X1 = CC(=O)N[C@H]1C(*)O[C@H](CO)[C@@H](O)[C@@H]1O
Recorded endpoint: MRT last (min)
Numbers only, in min.

Any idea what MRT last was measured for CC(=O)N[C@H]1C(OC[C@H](NC(=O)[C@@H](NC(=O)[C@H](Cc2ccc(O)cc2)NC(=O)[C@@H](NC(=O)[C@H](CCC(N)=O)NC(=O)CN)[C@@H](C)OC2O[C@H](CO)[C@@H](O)[C@H](O)[C@H]2NC(C)=O)[C@@H](C)O)C(=O)NCC(=O)O)O[C@H](CO)[C@@H](O)[C@@H]1O (stereo partly shown) [SIPI-G9, GQT(Glc)YTS(Glc)G] (H-GQT(X1)YTS(X1)G-OH) ?
6.63
